- measured-on: T1, human ASIC3a (hASIC3a-eYFP) (Homo sapiens, UniProt Q9UHC3)
- T1 construct: expressed in transfected cells; host or cells: CHO-K1 (transient)
- T1 sequence (Q9UHC3 1-531): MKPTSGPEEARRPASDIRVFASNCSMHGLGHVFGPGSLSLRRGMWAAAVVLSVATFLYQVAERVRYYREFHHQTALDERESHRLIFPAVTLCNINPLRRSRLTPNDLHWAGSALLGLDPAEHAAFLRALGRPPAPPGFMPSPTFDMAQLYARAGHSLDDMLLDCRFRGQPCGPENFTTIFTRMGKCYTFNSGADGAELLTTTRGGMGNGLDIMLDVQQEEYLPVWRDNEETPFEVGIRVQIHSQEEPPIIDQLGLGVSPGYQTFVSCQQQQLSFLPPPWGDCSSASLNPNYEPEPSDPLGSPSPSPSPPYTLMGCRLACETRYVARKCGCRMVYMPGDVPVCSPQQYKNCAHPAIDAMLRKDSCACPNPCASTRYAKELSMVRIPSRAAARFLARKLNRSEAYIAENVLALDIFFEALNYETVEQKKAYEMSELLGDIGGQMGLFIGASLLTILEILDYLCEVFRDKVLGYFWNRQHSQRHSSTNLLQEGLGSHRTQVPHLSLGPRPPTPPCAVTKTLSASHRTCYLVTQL
- assay-name: FACS-based binding assay, transiently transfected CHO-K1 cells (isotype selectivity)

| molecule | binding to the hASIC3a isoform |
| --- | --- |
| ASC06-02-IgG1: affinity-matured ASC06 derivative, VH-CDR3 DSFFGRAKGS (SEQ ID NO: 13) (antibody, V domains shown) VH: QVQLQQSGGGLVQPGGSLRLSCAASGFTFSSYAMSWVRQAPGKGLEWVSAISGSGGSTYYADSVKGRFTISRDNSKNTLYLQMNSLRAEDTAVYYCAKDSFFGRAKGSWGQGTLVTVSS VL: QSALTQPASVSGSPGQSITISCTGTSSDVGAYNYVSWYQQQPGKAPKLMIYGVSNRPSGVSNRFSGSKSGNAASLTISGLQAEDEADYYCSSYTSSSTYVFGTGTKLTVLG | no detectable binding |
| ASC06-03-IgG1: affinity-matured ASC06 derivative, VH-CDR3 DSFYGRAKGS (SEQ ID NO: 15) (antibody, V domains shown) VH: QVQLQQSGGGLVQPGGSLRLSCAASGFTFSSYAMSWVRQAPGKGLEWVSAISGSGGSTYYADSVKGRFTISRDNSKNTLYLQMNSLRAEDTAVYYCAKDSFYGRAKGSWGQGTLVTVSS VL: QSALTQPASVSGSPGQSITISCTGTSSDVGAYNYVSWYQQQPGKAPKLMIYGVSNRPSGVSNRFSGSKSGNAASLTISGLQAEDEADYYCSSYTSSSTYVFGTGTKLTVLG | no detectable binding |
| ASC06-04-IgG1: affinity-matured ASC06 derivative, VH-CDR3 DSFYGRAKGV (SEQ ID NO: 17) (antibody, V domains shown) VH: QVQLQQSGGGLVQPGGSLRLSCAASGFTFSSYAMSWVRQAPGKGLEWVSAISGSGGSTYYADSVKGRFTISRDNSKNTLYLQMNSLRAEDTAVYYCAKDSFYGRAKGVWGQGTLVTVSS VL: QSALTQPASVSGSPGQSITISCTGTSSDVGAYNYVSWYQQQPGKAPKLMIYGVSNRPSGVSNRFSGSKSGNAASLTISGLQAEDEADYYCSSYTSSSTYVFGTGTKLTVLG | no detectable binding |
